Reference for the values: ChEMBL document CHEMBL4715809

experiment: Cytotoxicity against human 293T cells assessed as reduction in cell viability after 24 hrs by CCK8 assay; format: cell-based; details: 293T (HEK-293T) cells
The following compounds are shown together with reported CC50 at 24 h values.
Respond numerically; units are µM and should not be typed.

Example entries begin here.
Cc1ccc(NC(=O)c2cccc(C(F)(F)F)c2)cc1-n1cc(-c2cnc3cccnn23)cn1 : 40.3
Cc1ccc(NC(=O)c2ccc(C(F)(F)F)cc2)cc1-n1cc(-c2cnc3ccnn3c2)cn1 : 43.2
Cc1ccc(NC(=O)c2ccc(CN3CCN(C)CC3)cc2)cc1-n1cc(-c2cnc3cccnn23)cn1 : 23.8
Cc1ccc(NC(=O)c2ccc(CN3CCOCC3)cc2)cc1-n1cc(-c2cnc3cccnn23)cn1 : 9.04
Cc1ccc(NC(=O)c2ccc(CN3CCN(C)CC3)cc2)cc1Nc1nccc(-c2cccnc2)n1 : 27.5

Now look at this one.
// CC50 at 24 h lookup, key: `Cc1ccc(NC(=O)c2ccc(CN3CCCN(C)CC3)cc2)cc1-n1cc(-c2cnc3ccnn3c2)cn1` 20.5

* * *

target: Bcr/Abl fusion protein (Homo sapiens, UniProt P00519); assay: Inhibition of BCR (unknown origin)/recombinant human N-terminal His-tagged ABL1 (27 to end residues) expressed in baculovirus infected Sf9 cells using ABLtide as substrate preincubated for 30 mins followed by substrate addition and measured after 1 hr in presence of ATP by kinase-Glo luminescence assay
Sequence (P00519 whole entry, the tested form may be a part): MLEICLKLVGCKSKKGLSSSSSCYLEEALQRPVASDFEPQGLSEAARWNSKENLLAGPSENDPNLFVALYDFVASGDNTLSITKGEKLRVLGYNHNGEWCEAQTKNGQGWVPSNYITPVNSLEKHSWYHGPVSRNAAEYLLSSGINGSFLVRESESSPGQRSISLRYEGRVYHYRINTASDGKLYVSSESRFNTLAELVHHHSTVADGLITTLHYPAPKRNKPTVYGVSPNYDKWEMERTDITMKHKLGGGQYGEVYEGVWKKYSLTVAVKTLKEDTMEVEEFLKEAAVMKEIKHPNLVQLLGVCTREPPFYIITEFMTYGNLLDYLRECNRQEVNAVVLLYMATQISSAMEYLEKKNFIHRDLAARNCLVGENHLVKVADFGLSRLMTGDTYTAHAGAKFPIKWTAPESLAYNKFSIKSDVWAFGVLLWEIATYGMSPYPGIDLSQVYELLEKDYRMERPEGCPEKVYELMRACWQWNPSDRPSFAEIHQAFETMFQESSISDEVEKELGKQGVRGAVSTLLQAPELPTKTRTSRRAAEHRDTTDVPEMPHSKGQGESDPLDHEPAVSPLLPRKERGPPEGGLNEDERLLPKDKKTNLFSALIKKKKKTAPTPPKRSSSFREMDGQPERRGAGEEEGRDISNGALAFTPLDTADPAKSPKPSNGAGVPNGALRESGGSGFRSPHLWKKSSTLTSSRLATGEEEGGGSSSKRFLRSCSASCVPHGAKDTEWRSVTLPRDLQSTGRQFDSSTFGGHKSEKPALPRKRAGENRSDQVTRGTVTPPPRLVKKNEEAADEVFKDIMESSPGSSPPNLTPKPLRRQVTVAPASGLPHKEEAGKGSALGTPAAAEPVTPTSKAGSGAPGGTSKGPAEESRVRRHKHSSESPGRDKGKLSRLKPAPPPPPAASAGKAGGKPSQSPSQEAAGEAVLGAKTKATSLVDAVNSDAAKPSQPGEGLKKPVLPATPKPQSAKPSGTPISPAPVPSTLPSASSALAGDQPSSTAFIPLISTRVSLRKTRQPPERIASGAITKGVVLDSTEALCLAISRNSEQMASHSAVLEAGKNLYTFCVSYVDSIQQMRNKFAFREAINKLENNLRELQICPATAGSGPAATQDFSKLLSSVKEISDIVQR
Sequence (P11274 whole entry, further chain, the tested form may be a part): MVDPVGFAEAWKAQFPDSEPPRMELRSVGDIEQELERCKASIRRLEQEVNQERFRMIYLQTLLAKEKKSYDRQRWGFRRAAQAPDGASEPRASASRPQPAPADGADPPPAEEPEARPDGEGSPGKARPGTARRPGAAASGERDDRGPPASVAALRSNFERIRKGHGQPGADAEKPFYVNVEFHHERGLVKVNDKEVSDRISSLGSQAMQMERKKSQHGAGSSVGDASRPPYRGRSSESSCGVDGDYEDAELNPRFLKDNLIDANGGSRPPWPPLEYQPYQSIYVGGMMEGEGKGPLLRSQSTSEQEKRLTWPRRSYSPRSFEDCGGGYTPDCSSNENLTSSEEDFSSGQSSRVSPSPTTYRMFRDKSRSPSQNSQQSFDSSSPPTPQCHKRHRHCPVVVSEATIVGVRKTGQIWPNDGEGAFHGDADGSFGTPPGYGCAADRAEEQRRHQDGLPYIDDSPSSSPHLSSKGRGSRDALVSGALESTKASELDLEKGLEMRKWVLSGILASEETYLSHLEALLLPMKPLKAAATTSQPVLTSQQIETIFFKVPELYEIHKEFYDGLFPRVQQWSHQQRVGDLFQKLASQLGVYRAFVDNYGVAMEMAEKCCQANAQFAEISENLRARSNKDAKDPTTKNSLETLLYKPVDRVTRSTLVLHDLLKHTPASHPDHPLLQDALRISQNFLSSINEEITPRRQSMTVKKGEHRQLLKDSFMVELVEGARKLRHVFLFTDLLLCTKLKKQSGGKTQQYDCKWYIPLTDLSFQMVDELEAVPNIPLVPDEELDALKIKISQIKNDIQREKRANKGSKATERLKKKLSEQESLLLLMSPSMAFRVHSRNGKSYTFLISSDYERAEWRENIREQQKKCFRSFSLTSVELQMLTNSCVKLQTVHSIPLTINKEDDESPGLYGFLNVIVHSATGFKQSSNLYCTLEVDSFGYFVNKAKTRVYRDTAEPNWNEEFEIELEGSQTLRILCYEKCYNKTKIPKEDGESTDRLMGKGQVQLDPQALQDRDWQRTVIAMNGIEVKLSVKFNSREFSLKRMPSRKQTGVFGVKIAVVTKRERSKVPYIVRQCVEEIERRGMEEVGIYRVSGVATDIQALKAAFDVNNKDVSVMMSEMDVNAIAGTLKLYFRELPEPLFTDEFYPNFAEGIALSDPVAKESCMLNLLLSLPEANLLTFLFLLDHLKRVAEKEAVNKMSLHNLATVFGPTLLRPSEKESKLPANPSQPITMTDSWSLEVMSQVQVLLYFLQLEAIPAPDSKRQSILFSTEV
measured property: pIC50
Keep in mind that pIC50 stands for -log10 of concentration in molar terms.

Cc1ccc(NC(=O)c2ccc(CN3CCOCC3)cc2)cc1-n1cc(-c2cnc3ccnn3c2)cn1 : 5.61
COc1ccc(C(=O)Nc2ccc(C)c(-n3cc(-c4cnc5ccnn5c4)cn3)c2)cc1 : 6.12
Cc1ccc(NC(=O)c2ccc(CN3CCCN(C)CC3)cc2)cc1-n1cc(-c2cnc3ccnn3c2)cn1 : 6.21
Cc1ccc(NC(=O)c2cccc(Cl)c2)cc1-n1cc(-c2cnc3cccnn23)cn1 : 7.65

// pIC50 lookup, key: `Cc1ccc(NC(=O)c2cccc(C(F)(F)F)c2)cc1-n1cc(-c2cnc3cccnn23)cn1` 8.07

// pIC50 lookup, key: `Cc1ccc(NC(=O)c2ccc(F)cc2)cc1-n1cc(-c2cnc3cccnn23)cn1` 7.09

// pIC50 lookup, key: `Cc1ccc(NC(=O)c2ccc(CN3CCN(C)CC3)cc2)cc1-n1cc(-c2cnc3cccnn23)cn1` 7.58

// pIC50 lookup, key: `Cc1ccc(NC(=O)c2ccc(C(F)(F)F)cc2)cc1-n1cc(-c2cnc3ccnn3c2)cn1` 6.09

// pIC50 lookup, key: `Cc1ccc(NC(=O)c2ccc(C(F)(F)F)cc2)cc1-n1cc(-c2cnc3cccnn23)cn1` 7.13

// pIC50 lookup, key: `Cc1ccc(NC(=O)c2ccc(CN3CCOCC3)cc2)cc1-n1cc(-c2cnc3cccnn23)cn1` 6.96

// pIC50 lookup, key: `CCc1ccc(C(=O)Nc2ccc(C)c(-n3cc(-c4cnc5cccnn45)cn3)c2)cc1` 7.71
